Record form. Attribute: activity change, negative = inhibition. Fill in for each entry.
Biological target: Cytochrome P450 2C9 (Homo sapiens)
Test: Cytochrome P450 Family 2 Subfamily C Member 9 (CYP2C9) small molecule antagonists: luciferase reporter qHTS assay (AID 1671198); further: on the % scale 0 is the no-effect control and ±100 the full control effect; nearly all actives have a fitted effect of over 50% in size
Conditions: P450-Glo CYP2C9 enzyme assay, luciferin luminescence; series mostly up to 115 µM
Records with an inconclusive call do not appear. Activity calls are given as the source filed them. The call rests on the fitted dose curve; in most records, active means well fitted inhibition curve with a large enough effect in the repeat runs; inconclusive means weak or mixed curves; inactive means no such curve, though single readings can be large or run the other way.

Incoming: Recorded activity change, negative = inhibition for COC(=O)C1CC(=O)C(C(=O)OC)CC1=O (centres undefined) with Cytochrome P450 2C9 (Homo sapiens), please?
Outgoing: -7.95% [at 10.5 µM] (inactive)

Incoming: Param item: Cc1nc2n(c(=O)c1CCN1CCC(c3noc4cc(F)ccc34)CC1)CCC[C@H]2O
Outgoing: 0.924% [at 23.6 µM] (inactive)

Incoming: Param item: O=S(O)(O)=S
Outgoing: -6.3% [at 10.5 µM] (inactive)

Incoming: Param item: C[Si](C)=O
Outgoing: -9.3% [at 10.5 µM] (inactive)

---

Assay: qHTS assay for small molecule disruptors of the mitochondrial membrane potential (AID 720635)
Details: HepG2 mitochondrial membrane potential, Mito-MPS dye ratio; series mostly up to 83.2 µM
Inconclusive results are not listed. Calls of active or inactive are those of the source. Calls follow the shape of the dose curve; as a rule, active = well fitted inhibition curve with a large enough effect in the signal ratio in the repeat runs; inconclusive = weak or mixed curves, or effect the other way; inactive = flat fitted curve, though single readings scatter; the % refers to the signal ratio.
Pick from true = active, false = inactive when you respond.

Incoming: Recorded test outcome, item O=C(O)c1ccc(Cl)cc1Cl
Outgoing: false

Incoming: Param item: CN(C)C(=O)CNC(=O)Cc1ccccc1
Outgoing: false

Incoming: Param item: O=C(Nc1ccc(Cl)c(Cl)c1)C1CC1
Outgoing: true

Incoming: Param item: CC(=O)/C=C/C1C(C)=CCC(C)C1(C)C (stereo not given)
Outgoing: false

Incoming: Param item: Cc1ccsc1/C=C/C1=NCCCN1C
Outgoing: false

Incoming: Param item: C[Si](C)(C)C
Outgoing: false

Incoming: Param item: CC(=O)NCCCCCC(=O)O
Outgoing: false

Incoming: Param item: CCCCCCOc1ccccc1C(N)=O
Outgoing: true

Incoming: Param item: C[C@@H](O)[C@H]1C(=O)N2C(C(=O)O)=C(SCCN=CN)C[C@H]12
Outgoing: false

Incoming: Param item: c1ccc2nccnc2c1
Outgoing: false

---

Experiment: qHTS assay for identifying genotoxic compounds that show differential cytotoxicity against isogenic chicken DT40 cell lines with known DNA damage response pathways - Rad54/Ku70 mutant cell line (AID 743015); further: nearly all actives have a fitted effect of over 60% in size
Settings: DT40 Rad54/Ku70 mutant viability, CellTiter-Glo, 40 h; series mostly up to 66.8 µM
From the text: National Center for Advancing Translational Sciences [NCATS] NIH Chemical Genomics Center [NCGC] U.S. Environmental Protection Agency [EPA] National Institutes of Environmental Health Sciences [NIEHS] National Toxicology Program [NTP] U.S. Food and Drug Administration [FDA] DNA repair pathways play a critical role in cellular homeostasis by repairing DNA damage induced by endogenous processes and xenobiotics. […]
Results filed as inconclusive are left out. Activity calls are given as the source filed them. Calls come from the whole dose curve; as a rule, active = well fitted cell-killing curve with a large enough effect in the repeat runs; inconclusive = weak or mixed curves; inactive = no such curve, though single readings can be large or run the other way.
Pick from active, inactive when you respond.

Incoming: Recorded test outcome, item CC(=O)Nc1ccc(S(=O)(=O)Nc2ccc([N+](=O)[O-])cc2)cc1
Outgoing: inactive

Incoming: Param item: Cc1ccccc1OCC(O)CO (centres undefined)
Outgoing: inactive

Incoming: Param item: Cc1cc(Cl)c(C)cc1Cl
Outgoing: inactive

Incoming: Param item: CC(C)NCC(O)COc1cccc2[nH]ccc12 (centres undefined)
Outgoing: inactive

Incoming: Param item: N[C@@H](CCC(=O)Nc1ccc([N+](=O)[O-])cc1)C(=O)O
Outgoing: inactive

Incoming: Param item: CCOC(=O)c1ncn2c1CN(C)C(=O)c1cc(F)ccc1-2
Outgoing: inactive

Incoming: Param item: CC/C=C\CC1=C(C)CCC1=O
Outgoing: inactive

Incoming: Param item: c1ccc2c(c1)ccc1c3ccccc3ccc21
Outgoing: inactive

Incoming: Param item: N#Cc1ccc(C(=O)O)cc1
Outgoing: active

Incoming: Param item: O=S(=O)(O)c1ccc2cc(O)c(S(=O)(=O)O)cc2c1
Outgoing: inactive

Incoming: Param item: CCCCCCCCCC(C)=O
Outgoing: inactive

Incoming: Param item: CC(CC=O)CCCC(C)(C)O (centres undefined)
Outgoing: inactive

Incoming: Param item: Nc1ccc(S(=O)(=O)Nc2ccc(Cl)nn2)cc1
Outgoing: inactive

Incoming: Param item: CC(C)N(c1ccccc1)C(C)C
Outgoing: inactive

Data origin, for the record: PubChem BioAssay (Tox21)
